Source listed as paper PMC5540273.

- System: FGFR1
- appliedConditions: concentration: 1 μM, replicates: in singlicate; n = 1;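 further: KINOMEscan kinase panel screen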

| smilesData | %Inh / % |
| --- | --- |
| Fc1cccc(COc2nnc(-c3ccc4c(c3)CCO4)o2)c1 | 5 |
| Fc1cc(Cl)ccc1Nc1ccnc2cc(I)ccc12 | 8 |
| CC(=O)Nc1nc2cnc(Nc3cc(NC(=O)c4cccc(CCC#N)c4)ccc3C)nc2s1 | 9 |
| COc1cc2ncnc(Nc3ccc4nc(-c5ccccc5)[nH]c4c3)c2cc1OC.Cl | 10 |
| Cc1cccc(-c2nc(C)cc(Nc3ccncc3)n2)n1 | 7 |
| CN(C)CCN(C)C(=O)c1cc(-c2ccncc2)c(-c2ccc(Cl)c(O)c2)o1.Cl.Cl | 0 |
| COc1cc2nccc(Nc3ccc(NC(=O)c4ccc(C)cc4)c(O)c3)c2cc1OC.Cl | 22 |
| Cn1ccc2ncnc(Oc3cccc(C(=O)Nc4ccccc4)c3)c21 | 0 |
| Cl.NC(=O)c1cccc(Nc2nccc(Nc3ccc(Oc4cccc(Cl)c4)c(Cl)c3)n2)c1 | 18 |

* * *

- Test system: DYRK1B
- appliedConditions: concentration: 1 μM, replicates: in singlicate; n = 1

| compound | measuredTarget | %Inh, % |
| --- | --- | --- |
| Cn1ccc2ncnc(Oc3ccc(Nc4nc5ccccc5[nH]4)cc3)c21 | DYRK1B | 5 |
| Fc1cc(Cl)ccc1Nc1ccnc2cc(I)ccc12 [GW551191] | DYRK1B | 60 |
| Cn1ccc2ncnc(Oc3cccc(C(=O)Nc4ccccc4)c3)c21 | DYRK1B | 24 |
| CN(C)CCN(C)C(=O)c1cc(-c2ccncc2)c(-c2ccc(Cl)c(O)c2)o1.Cl.Cl [SB-710397] | DYRK1B | 0 |
| Cn1ccc2ncnc(Oc3ccc(NC(=O)Nc4ccccc4)cc3)c21 | DYRK1B | 40 |
| Cc1cccc(-c2nc(Nc3ccncc3)c3ccccc3n2)n1 [GW855857] | DYRK1B | 27 |
| COc1cc(Nc2nccc(N3CCC(NC(=O)Nc4cc(C)ccc4C)C3)n2)cc(OC)c1OC (stereo not drawn) [GSK1379762] | DYRK1B | 16 |
| Cc1csc(-c2nc(Nc3ccncc3)c3ccccc3n2)n1 [GW869640] | DYRK1B | 0 |
| CCn1c(-c2ccccn2)nc2cnccc21 [SB-736398] | DYRK1B | 11 |
| Cc1cccc(-c2nc(C)cc(Nc3ccncc3)n2)n1 [GSK257997] | DYRK1B | 13 |
| O=C(O)COc1ncnc2cc(-c3ccc4[nH]ncc4c3)sc12 | DYRK1B | 41 |
| CC(C)(C)c1ccc(C(=O)Nc2cn3cc(-c4cccnc4)ccc3n2)cc1 | DYRK1B | 65 |
| Clc1cc(Cl)cc(Nc2ccnc(Nc3cc(Cl)cc(Cl)c3)n2)c1 [GSK175726] | DYRK1B | 19 |
| Cc1cc(NCC(c2ccccc2)c2ccccc2)nc(NCc2ccc(C(F)(F)F)cc2)n1 [GW497681] | DYRK1B | 0 |
| COc1ccc(Nc2nccc(-c3cccc(NC(=O)c4cc5cc(F)ccc5[nH]4)c3)n2)cc1 [GSK1229782] | DYRK1B | 25 |

* * *

- Tested on: DYRK2
- appliedConditions: concentration: 1 μM, replicates: in singlicate; n = 1

| smilesData | %Inh (%) |
| --- | --- |
| CC(=O)Nc1nc2cnc(Nc3cc(NC(=O)c4cccc(CCC#N)c4)ccc3C)nc2s1 | 0 |
| COc1cccc(-c2cc(-c3c[nH]nc3-c3ccccn3)ccn2)c1 | 1 |
| Cc1ccc(NC(=O)Nc2cccc(Cl)c2)cc1-c1ccc(C(=O)Nc2ccncc2)cc1 | 0 |
